- System: NF-κB
- protocol_summary: NF-κB assay: THP1-NF-κB-LUC cells, LPS-stimulated secreted luciferase
- Assay type: cell-based
- protocol_conditions: THP1-NF-κB-LUC cells; compounds 2 hours before LPS (10 ng/mL) for 18 hours; secreted luciferase; read-out: IC50 (NF-κB assay)
measure: IC50

These recorded examples may help you get a feel for the data.
# compound, val
measured = [
    ("CC1Oc2c(cc(Cl)cc2S(=O)(=O)Nc2ccc(F)cc2)NC1=O (stereo not drawn)", "< 0.1 µM"),
    ("Cc1ccc(NS(=O)(=O)c2cc(Cl)cc3c2OC(C)C(=O)N3)cc1F (stereo not drawn)", "< 0.1 µM"),
]

q: Quick one: IC50 of O=c1c(S(=O)(=O)c2ccc(F)c(F)c2)c[nH]c2c(F)ccc(Cl)c12 ?
a: < 0.1 µM

q: Quick one: IC50 of COc1ccc(NS(=O)(=O)c2cc3c(cc2C)N(C)CCO3)cc1 ?
a: > 10 µM

q: Quick one: IC50 of Cc1ccc(S(=O)(=O)c2cc3cc(Br)ccc3oc2=O)cc1Cl ?
a: > 10 µM

q: Quick one: IC50 of CCc1cccc(NS(=O)(=O)c2cc3c(cc2Br)N(C)C(=O)C(CC)O3)c1 (stereo not drawn) ?
a: 1 to 10 µM

q: Quick one: IC50 of CCS(=O)(=O)c1cc2c(c(S(=O)(=O)Nc3ccc(F)c(F)c3)c1)OCC(=O)N2 ?
a: < 0.1 µM

q: Quick one: IC50 of O=C1COc2c(cc(Br)cc2S(=O)(=O)NCCc2ccc(OC(F)(F)F)cc2)N1 ?
a: > 10 µM

q: Quick one: IC50 of CCCN(c1ccccc1OC)S(=O)(=O)c1cc2c(cc1C)NC(=O)CO2 ?
a: 1 to 10 µM

---

- Tested on: TNF release
- protocol_summary: TNF assay: TNF release from LPS-stimulated human PBMCs (TNF ELISA)
- Type: cell-based
- protocol_conditions: PBMC; human PBMCs; compounds 2 hours before LPS (10 ng/ml) for 18 hours; supernatant TNF ELISA; read-out: IC50 (TNF assay)
pIC50: −log10 of the molar value.
measure: pIC50

# compound, pIC50
records = [
    ("COc1ccc(NS(=O)(=O)c2cc(Br)cc3c2OC(CC(C)C)C(=O)N3)cc1Cl (stereo not shown) [BC19779]", "5.00 to 6.00"),
    ("CC1Oc2c(cc(Cl)cc2S(=O)(=O)Nc2ccc(C(C)C)cc2)NC1=O (stereo not shown) [BC19705]", "< 5.00"),
    ("CCC1Oc2c(cc(Br)cc2S(=O)(=O)Nc2ccc(OC(F)(F)F)cc2)N(C)C1=O (stereo not shown) [BC19921]", "5.00 to 6.00"),
    ("CCNS(=O)(=O)c1cc2c(cc1Cl)NC(=O)C(C)O2 (stereo not shown) [BC19209]", "< 5.00"),
    ("Cc1ccc(C)c2c(=O)c(S(=O)(=O)c3ccc(F)c(F)c3)c[nH]c12 [BC19198]", "< 5.00"),
    ("CC(C)CC1Oc2c(cc(Br)cc2S(=O)(=O)Nc2ccc(OC(F)(F)F)cc2)NC1=O (stereo not shown) [BC19757]", "< 5.00"),
]

q: Quick one: pIC50 of CC1Oc2c(cc(Cl)cc2S(=O)(=O)Nc2ccc(F)cc2)NC1=O (stereo not shown) [BC19722] ?
a: 5.00 to 6.00

Entry source: patent US12606528B2
